# tested on: MERS RBD-hFc (MERS-CoV (isolate EMC/2012))
# method description: ELISA on coated MERS RBD-hFc, hybridoma supernatant 1:50, absorbance at 450 nm
Entries and their ELISA Binding values follow.
The answer should be a number; do not append a unit.

Consider the worked cases shown below.
>  <binder>
H2aM15279N (antibody, V domains shown) VH: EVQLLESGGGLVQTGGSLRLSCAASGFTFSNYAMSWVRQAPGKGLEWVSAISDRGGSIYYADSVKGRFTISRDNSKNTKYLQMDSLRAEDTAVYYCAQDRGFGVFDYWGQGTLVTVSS VL: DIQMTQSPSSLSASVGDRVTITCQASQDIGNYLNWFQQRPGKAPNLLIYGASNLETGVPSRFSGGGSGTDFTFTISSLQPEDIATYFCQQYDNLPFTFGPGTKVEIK

>  <ELISA Binding>
2.18

$$$$
>  <binder>
H2bM15292N (antibody, V domains shown) VH: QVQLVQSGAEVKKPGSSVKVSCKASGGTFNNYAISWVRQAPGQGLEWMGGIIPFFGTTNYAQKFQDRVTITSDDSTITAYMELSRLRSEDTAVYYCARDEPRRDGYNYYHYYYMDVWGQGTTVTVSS VL: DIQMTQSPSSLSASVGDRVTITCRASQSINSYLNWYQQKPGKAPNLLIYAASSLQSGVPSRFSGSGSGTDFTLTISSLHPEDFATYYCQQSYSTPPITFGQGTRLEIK

>  <ELISA Binding>
2.78

$$$$

Turning to the following binder.
Briefly, ELISA Binding measured for H2aM15278N (antibody, V domains shown) VH: QVQLVQSGAEVKKPGASVKVSCKASGYTFTSHGISWVRQAPGQGFEWMGWIGTYNSNTDYAQNFQGRVTMTTDTSTSTAYMELRNLRSDDTAVYYCARERGPYYGMDVWGQGTTVTVSS VL: EIVLAQSPGTLSLSPGERATLSCRASQSVNSNYLAWYQQKPGQAPRLLIYGASSRATGIPDRFSGSGSGTDFTLTISRLEPEDFAVYYCQQYGNSLTFGPGTKVDFK : 2.42
